Each entry below carries its reported IC50.
# testedTarget: human MASP2 (Homo sapiens (Human))
# Sequence (O00187 other isoform, or with tags, fused parts or gaps): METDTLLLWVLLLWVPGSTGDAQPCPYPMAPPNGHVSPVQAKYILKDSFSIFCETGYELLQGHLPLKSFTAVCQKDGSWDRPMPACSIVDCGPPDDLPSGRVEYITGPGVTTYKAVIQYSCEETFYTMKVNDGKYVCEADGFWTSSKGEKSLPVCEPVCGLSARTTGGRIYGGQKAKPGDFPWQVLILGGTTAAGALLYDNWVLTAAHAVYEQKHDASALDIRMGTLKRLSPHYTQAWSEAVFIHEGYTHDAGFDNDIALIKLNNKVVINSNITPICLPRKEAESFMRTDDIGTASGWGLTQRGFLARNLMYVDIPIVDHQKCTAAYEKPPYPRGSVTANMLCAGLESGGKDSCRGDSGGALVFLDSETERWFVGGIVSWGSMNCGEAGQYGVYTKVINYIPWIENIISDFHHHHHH
# assayInfo: Biochemical human MASP2 assay (FRET substrate)
# protocolConditions: Average IC50; recombinant human MASP2; read-out: human MASP2 IC50
*1 amine or outer side, *2 acyl side, *3 side chain or, on linkers, in order; H or OH if unused. Where a SMILES comes first, the peptide text is derived from it. Bridges are numbered along the chain shown (N, C = ends). [ ]: non-standard residue; d: D form. Adipoyl = O=C(CCCCC(=O)[*:2])[*:1]; tBuAla = CC(C)(C)C[C@H](N)C(=O)O; Pen = CC(C)(S)[C@H](N)C(=O)O; Dap = NC[C@H](N)C(=O)O
Numeric answer only, unit nM assumed.

# get_value(readout= IC50, system= human MASP2 (Homo sapiens (Human))) for CC[C@H](C)[C@@H]1NC(=O)CCCCC(=O)NC[C@@H](C(N)=O)NC(=O)[C@H](CC(=O)O)NC(=O)[C@@H]2CCCN2C(=O)[C@H]([C@@H](C)CC)NC(=O)[C@H]2NC(=O)[C@H]([C@@H](C)CC)NC(=O)[C@@H]3CCCN3C(=O)[C@@H]3CCCN3C(=O)[C@H](CC(C)(C)C)NC(=O)[C@H](CO)NC(=O)[C@H](CCCNC(=N)N)NC(=O)[C@H](CO)NC(=O)[C@H](CSSC2(C)C)NC1=O [Example 60] (ICSRS[tBuAla]PPI[Pen]IPD[Dap]-NH2; disulfide 2-10; linker N-14 via Adipoyl)
5.4

Provide the documented IC50 with human MASP2 (Homo sapiens (Human)) as the system for CC[C@H](C)[C@@H]1NC(=O)CNC(=O)[C@H](CO)NC(=O)CNC(=O)[C@H](CO)NC(=O)[C@H](CC(=O)O)NC(=O)[C@@H]2CCCN2C(=O)[C@H]([C@@H](C)CC)NC(=O)[C@@H]2CSSC[C@H](NC1=O)C(=O)N[C@@H](CO)C(=O)N[C@@H](CCCNC(=N)N)C(=O)N[C@@H](CO)C(=O)N[C@@H](CC(C)C)C(=O)N1CCC[C@H]1C(=O)N1CCC[C@H]1C(=O)N[C@@H]([C@@H](C)CC)C(=O)N2 [Example 21] (cyclo(CIPDSGSGICSRSLPPI); disulfide 1-10)
120
